- TEST_TARGET: p300 (Homo sapiens)
- Construct: host or cells: A549 P300 HiBit cells
- ASSAY_PROCEDURE: P300 degradation, HiBit technology in A549 P300 HiBit cells (2 h)
- Type: cell-based
- RECORDED_CONDITIONS: A549 P300 HiBit cells, 2 hrs post treatment
RECORDED_METRIC: DC50

- MOLECULE: "Cc1cc(N2CCCc3nc(-c4ccc(C(=O)NCC#Cc5ccc6occ(C7CCC(=O)NC7=O)c6c5)nc4)ncc32)c2cc(C)c(=O)n(C)c2c1 (stereo not drawn) [Example B151]"
  VALUE_MEASURED: "1 to 9.9 nM"
- MOLECULE: "Cc1cc2c(N3CCCc4nc(-c5ccc(C(=O)NCC#Cc6cc7c(C8CCC(=O)NC8=O)cccc7o6)nc5)ncc43)cccc2n(C)c1=O (stereo not drawn) [Example B67]"
  VALUE_MEASURED: "< 1 nM"
- MOLECULE: "CC(C)c1cc(N2CCCc3cc(-c4ccc(C(=O)NCC#Cc5ccc6occ(C7CCC(=O)NC7=O)c6c5)nc4)c(F)cc32)cc2c1n(C)c(=O)n2C (stereo not drawn) [Example A117]"
  VALUE_MEASURED: "1 to 9.9 nM"
- MOLECULE: "Cc1nc(-c2ncc(N(C)c3cc(C4CCOCC4)c4c(c3)n(C)c(=O)n4C)cn2)cnc1C(=O)NCC#Cc1cc2c(C3CCC(=O)NC3=O)cccc2o1 (stereo not drawn) [Example A187]"
  VALUE_MEASURED: "1 to 9.9 nM"
- MOLECULE: "Cc1cc2c(N3CCCc4cc(-c5ccc(C(=O)NCC#Cc6ccc7occ(C8CCC(=O)NC8=O)c7c6)nc5)c(F)cc43)cccc2n(C)c1=O (stereo not drawn) [Example B129]"
  VALUE_MEASURED: "1 to 9.9 nM"

Read the next record carefully.
What does the record list as DC50 for Cc1cc2c(N3CCCc4nc(-c5ccc(C(=O)NCC#Cc6ccc7occ([C@H]8CCC(=O)NC8=O)c7c6)nc5)ncc43)nc(N3CCOCC3)cc2n(C)c1=O [Example B72] ? 1 to 9.9 nM

###

- TEST_TARGET: p300 (Homo sapiens, UniProt Q09472)
- Construct: host or cells: A549 P300 HiBit cells
- Sequence (Q09472 whole entry): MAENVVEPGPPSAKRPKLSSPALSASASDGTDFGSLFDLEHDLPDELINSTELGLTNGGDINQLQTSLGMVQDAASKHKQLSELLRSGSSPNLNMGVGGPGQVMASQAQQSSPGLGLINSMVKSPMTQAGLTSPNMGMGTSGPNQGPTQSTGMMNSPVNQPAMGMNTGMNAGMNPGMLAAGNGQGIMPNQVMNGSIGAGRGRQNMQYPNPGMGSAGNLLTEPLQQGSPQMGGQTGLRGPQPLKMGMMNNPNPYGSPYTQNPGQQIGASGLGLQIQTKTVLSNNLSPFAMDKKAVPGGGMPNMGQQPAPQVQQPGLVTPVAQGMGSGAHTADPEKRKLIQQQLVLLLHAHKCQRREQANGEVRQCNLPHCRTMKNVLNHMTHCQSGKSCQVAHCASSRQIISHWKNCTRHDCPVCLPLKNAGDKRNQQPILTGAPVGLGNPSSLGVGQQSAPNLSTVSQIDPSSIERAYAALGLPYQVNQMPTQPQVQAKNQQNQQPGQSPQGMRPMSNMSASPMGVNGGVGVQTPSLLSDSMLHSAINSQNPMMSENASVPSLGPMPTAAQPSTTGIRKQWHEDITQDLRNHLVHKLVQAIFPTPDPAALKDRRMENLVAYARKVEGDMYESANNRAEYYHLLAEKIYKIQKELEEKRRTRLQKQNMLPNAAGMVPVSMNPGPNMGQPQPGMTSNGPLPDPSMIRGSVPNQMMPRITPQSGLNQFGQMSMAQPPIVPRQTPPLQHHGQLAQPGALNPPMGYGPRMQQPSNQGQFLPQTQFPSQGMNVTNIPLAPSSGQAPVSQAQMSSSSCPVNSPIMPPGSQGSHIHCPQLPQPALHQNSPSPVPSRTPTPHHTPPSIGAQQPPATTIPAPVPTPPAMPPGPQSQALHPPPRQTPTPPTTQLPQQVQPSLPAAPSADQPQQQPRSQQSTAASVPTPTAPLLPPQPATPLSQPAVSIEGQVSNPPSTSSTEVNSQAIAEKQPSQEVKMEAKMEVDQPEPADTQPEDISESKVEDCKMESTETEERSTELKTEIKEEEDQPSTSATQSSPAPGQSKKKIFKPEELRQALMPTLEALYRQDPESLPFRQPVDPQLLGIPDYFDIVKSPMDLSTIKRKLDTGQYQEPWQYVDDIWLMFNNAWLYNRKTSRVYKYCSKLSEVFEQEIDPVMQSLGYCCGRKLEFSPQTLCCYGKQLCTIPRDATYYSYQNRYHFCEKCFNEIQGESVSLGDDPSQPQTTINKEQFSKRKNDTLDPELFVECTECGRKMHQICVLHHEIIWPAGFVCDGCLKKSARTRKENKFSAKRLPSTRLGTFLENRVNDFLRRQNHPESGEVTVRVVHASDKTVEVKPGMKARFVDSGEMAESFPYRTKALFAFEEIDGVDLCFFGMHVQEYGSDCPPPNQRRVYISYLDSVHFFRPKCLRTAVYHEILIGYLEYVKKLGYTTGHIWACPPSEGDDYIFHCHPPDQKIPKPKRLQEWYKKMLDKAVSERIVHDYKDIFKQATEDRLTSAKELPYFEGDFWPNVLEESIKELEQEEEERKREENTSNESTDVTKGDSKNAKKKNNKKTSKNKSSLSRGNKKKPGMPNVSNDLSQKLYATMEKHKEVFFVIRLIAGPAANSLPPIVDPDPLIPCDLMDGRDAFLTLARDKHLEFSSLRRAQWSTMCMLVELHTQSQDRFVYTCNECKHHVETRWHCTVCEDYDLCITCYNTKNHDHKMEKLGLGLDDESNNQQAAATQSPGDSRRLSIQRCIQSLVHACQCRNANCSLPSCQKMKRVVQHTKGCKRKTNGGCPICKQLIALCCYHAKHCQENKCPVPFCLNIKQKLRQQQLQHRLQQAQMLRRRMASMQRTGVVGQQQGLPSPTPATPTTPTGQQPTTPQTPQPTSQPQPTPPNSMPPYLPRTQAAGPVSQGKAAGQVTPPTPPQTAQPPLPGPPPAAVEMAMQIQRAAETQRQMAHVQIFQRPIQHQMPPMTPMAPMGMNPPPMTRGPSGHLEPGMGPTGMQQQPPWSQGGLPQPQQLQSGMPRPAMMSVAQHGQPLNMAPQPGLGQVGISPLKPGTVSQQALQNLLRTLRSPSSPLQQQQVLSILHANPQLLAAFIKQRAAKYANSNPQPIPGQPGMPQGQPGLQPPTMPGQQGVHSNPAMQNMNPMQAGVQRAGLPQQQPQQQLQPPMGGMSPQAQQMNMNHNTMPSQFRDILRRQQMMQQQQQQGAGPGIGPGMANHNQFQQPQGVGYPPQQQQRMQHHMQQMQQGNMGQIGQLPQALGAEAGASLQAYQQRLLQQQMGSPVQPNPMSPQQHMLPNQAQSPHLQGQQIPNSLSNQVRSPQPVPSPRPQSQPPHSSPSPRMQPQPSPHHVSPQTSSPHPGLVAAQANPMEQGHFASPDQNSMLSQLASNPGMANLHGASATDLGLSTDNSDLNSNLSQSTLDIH
- ASSAY_PROCEDURE: P300 degradation, HiBit technology in A549 P300 HiBit cells (2 h)
- Format: cell-based
- RECORDED_CONDITIONS: A549 P300 HiBit cells, 2 hrs post treatment
RECORDED_METRIC: DC50

- COMPOUND: "Cc1cc(-c2cc3cccc(-c4cc5c(c(N6CCOCC6)n4)n(C)c(=O)n5C)c3cn2)cnc1C(=O)NCC#Cc1ccc2occ(C3CCC(=O)NC3=O)c2c1 (stereo not drawn)"
  DC50: "1 to 9.9 nM"
- COMPOUND: "Cn1c(=O)n(C)c2c(N3CC4CCC(C3)O4)nc(-c3cccc4cc(-c5ccc(C(=O)NCC#Cc6ccc7occ(C89CC(C8)C(=O)NC9=O)c7c6)nc5)ncc34)cc21"
  DC50: "1 to 9.9 nM"

I have this compound here, Cn1c(=O)n(C)c2cc(N3CCCc4nc(-c5ccc(C(=O)NCC#Cc6ccc7occ(C8CCC(=O)NC8=O)c7c6)nc5)ncc43)ccc21 (stereo not drawn) , and I need its recorded DC50. 1 to 9.9 nM

###

- TEST_TARGET: CBP (Homo sapiens)
- Construct: host or cells: A549 CBP HiBit cells
- Sequence (Q92793 whole entry): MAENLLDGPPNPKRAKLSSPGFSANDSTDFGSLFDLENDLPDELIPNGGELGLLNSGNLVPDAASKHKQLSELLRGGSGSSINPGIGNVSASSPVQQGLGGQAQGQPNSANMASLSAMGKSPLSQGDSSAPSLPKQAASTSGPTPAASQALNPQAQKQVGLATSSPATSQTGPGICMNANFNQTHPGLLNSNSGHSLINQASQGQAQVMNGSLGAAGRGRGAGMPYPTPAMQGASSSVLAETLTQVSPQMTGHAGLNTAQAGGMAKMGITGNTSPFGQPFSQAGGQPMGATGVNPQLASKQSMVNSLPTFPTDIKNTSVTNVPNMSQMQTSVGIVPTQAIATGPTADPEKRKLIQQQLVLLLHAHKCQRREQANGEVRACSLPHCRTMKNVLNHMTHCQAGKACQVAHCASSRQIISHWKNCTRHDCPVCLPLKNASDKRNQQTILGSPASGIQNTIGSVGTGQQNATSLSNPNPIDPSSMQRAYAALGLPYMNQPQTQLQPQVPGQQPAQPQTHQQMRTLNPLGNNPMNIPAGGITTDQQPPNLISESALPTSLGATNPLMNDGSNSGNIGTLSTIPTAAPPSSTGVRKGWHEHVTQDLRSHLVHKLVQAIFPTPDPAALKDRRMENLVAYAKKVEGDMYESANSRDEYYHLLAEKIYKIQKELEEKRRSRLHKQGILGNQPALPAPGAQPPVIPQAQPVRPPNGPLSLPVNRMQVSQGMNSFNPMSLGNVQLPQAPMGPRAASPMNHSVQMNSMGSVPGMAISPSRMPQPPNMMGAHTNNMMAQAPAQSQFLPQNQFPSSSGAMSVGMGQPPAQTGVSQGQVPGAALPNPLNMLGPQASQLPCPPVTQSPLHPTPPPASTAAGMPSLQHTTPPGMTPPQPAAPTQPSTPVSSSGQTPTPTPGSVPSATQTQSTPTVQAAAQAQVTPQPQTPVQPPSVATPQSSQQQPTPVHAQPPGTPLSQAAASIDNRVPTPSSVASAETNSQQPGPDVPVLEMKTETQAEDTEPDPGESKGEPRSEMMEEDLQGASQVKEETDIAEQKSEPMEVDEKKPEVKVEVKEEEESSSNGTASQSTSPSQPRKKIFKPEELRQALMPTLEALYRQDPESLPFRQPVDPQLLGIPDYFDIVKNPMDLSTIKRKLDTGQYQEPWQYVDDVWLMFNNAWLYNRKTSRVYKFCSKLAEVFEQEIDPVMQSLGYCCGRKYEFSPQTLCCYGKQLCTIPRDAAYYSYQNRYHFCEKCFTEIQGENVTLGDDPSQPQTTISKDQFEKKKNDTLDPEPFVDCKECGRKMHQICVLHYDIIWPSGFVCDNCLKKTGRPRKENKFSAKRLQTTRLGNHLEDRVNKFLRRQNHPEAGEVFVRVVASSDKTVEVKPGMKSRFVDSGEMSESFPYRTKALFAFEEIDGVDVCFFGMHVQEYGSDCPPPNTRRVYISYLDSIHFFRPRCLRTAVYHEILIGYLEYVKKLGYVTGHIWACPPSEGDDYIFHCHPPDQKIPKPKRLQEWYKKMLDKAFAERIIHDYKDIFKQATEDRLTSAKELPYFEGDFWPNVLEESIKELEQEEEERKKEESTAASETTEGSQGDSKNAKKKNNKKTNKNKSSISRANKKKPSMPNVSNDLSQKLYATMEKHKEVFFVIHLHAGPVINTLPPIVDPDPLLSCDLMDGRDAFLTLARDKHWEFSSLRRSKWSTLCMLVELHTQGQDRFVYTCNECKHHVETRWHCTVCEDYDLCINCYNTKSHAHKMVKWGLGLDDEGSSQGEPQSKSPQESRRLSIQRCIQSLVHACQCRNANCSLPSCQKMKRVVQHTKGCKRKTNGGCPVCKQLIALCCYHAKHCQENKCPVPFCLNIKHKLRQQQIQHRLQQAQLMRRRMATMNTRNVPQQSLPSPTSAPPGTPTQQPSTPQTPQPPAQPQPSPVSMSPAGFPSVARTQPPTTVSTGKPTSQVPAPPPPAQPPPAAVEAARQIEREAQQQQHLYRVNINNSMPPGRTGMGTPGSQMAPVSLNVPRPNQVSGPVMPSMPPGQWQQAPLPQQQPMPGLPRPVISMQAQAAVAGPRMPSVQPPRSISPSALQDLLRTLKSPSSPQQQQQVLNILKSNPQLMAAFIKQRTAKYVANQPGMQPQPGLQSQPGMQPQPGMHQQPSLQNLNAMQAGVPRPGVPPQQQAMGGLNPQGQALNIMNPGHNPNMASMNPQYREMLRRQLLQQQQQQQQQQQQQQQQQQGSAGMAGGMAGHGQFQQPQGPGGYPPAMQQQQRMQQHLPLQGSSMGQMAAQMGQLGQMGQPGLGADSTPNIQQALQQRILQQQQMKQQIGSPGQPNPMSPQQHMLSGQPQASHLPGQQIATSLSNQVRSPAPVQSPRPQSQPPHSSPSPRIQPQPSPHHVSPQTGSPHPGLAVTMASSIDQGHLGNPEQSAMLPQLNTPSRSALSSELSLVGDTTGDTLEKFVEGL
- ASSAY_PROCEDURE: CBP degradation, HiBit technology in A549 CBP HiBit cells (24 h)
- Type: cell-based
- RECORDED_CONDITIONS: 24 hrs post treatment
Listing of recorded DC50 by entry.

- MOLECULE: "Cc1cc2c(N3CCCc4nc(-c5ccc(C(=O)NCC#Cc6cc7c(C8CCC(=O)NC8=O)cccc7o6)nc5)ncc43)cc(C3CCC3)cc2n(C)c1=O (centres unmarked)"
  DC50: "> 1000 nM"

Short answer please: DC50, CBP (Homo sapiens), entry CC(C)c1cc(-c2cccc3cc(-c4ccc(C(=O)NCC#Cc5cc6c(C7CCC(=O)NC7=O)coc6cc5F)nc4)ncc23)cc2c1n(C)c(=O)n2C (centres unmarked) > 1000 nM

Request: DC50, test system CBP (Homo sapiens), entry CC(C)c1cc(-c2cccc3cc(-c4ccc(C(=O)NCC#Cc5ccc6c(c5)n(C5CCC(=O)NC5=O)c(=O)n6C)nc4)ncc23)cc2c1n(C)c(=O)n2C (centres unmarked) 10 to 99 nM

For CBP (Homo sapiens), provide DC50 of Cc1cc(N2CCOc3nc(-c4ccc(C(=O)NCC#Cc5ccc6occ(C7CCC(=O)NC7=O)c6c5)nc4)ncc32)cc2c1n(C)c(=O)n2C (centres unmarked) please. > 1000 nM

Query for CBP (Homo sapiens): what DC50 does the record show for Cc1cc(N2CCN(C)c3nc(-c4ccc(C(=O)NCC#Cc5cc6c(C7CCC(=O)NC7=O)cccc6o5)nc4)ncc32)cc2c1n(C)c(=O)n2C (centres unmarked) ? 100 to 999 nM

Fill in the recorded DC50 for this molecule, with CBP (Homo sapiens) as test system: COc1cc(-c2ncc3c(n2)CCCN3c2cc(C3CCOCC3)cc3c2cc(C)c(=O)n3C)cnc1C(=O)NCC#Cc1ccc2occ(C3CCC(=O)NC3=O)c2c1 (centres unmarked) > 1000 nM

Lab request: please report DC50 under test system CBP (Homo sapiens) for Cc1ccc(-c2ccc3c(c2)n(C)c(=O)n3C)c2cnc(-c3ccc(C(=O)NCC#Cc4ccc5occ(C6CCC(=O)NC6=O)c5c4)nc3)cc12 (centres unmarked) > 1000 nM

// lookup DC50 | system=CBP (Homo sapiens) | key= "Cc1cc2c(N3CCCc4nc(-c5ccc(C(=O)NCC#Cc6cc7c([C@H]8CCC(=O)NC8=O)cccc7o6)nc5)ncc43)nc(N3CCOCC3)cc2n(C)c1=O" 100 to 999 nM

Request - read-out DC50 | tested on CBP (Homo sapiens) | molecule Cn1c(=O)n(C)c2c(N3CCOCC3)nc(-c3cccc4cc(-c5ccc(C(=O)NCC#Cc6cc7c(C8CCC(=O)NC8=O)cccc7o6)nc5)ncc34)cc21 (centres unmarked) 100 to 999 nM

Report DC50 for Cc1cc(-c2ncc3c(n2)CCCN3c2nc(N3CC4CCC(C3)O4)cc3c2cc(C)c(=O)n3C)cnc1C(=O)NCC#Cc1ccc2occ(C3CCC(=O)NC3=O)c2c1 (centres unmarked) tested on CBP (Homo sapiens). > 1000 nM

For the record CCc1cc(-c2cccc3cc(-c4ccc(C(=O)NCC#Cc5ccc6ncn(C7CCC(=O)NC7=O)c6c5)nc4)ncc23)c2cc(C)c(=O)n(C)c2c1 (centres unmarked) , what value of DC50 is listed for CBP (Homo sapiens)? > 1000 nM

###

- TEST_TARGET: p300 (Homo sapiens, UniProt Q09472)
- Construct: host or cells: A549 P300 HiBit cells
- ASSAY_PROCEDURE: P300 degradation, HiBit technology in A549 P300 HiBit cells (2 h)
- Type: cell-based
- RECORDED_CONDITIONS: A549 P300 HiBit cells, 2 hrs post treatment
RECORDED_METRIC: DC50

- COMPOUND: "CC(C)c1cc(-c2cccc3cc(-c4ccc(C(=O)NCC#Cc5ccc6cnn(C7CCC(=O)NC7=O)c6c5Cl)nc4)ncc23)cc2c1n(C)c(=O)n2C (stereo not shown)"
  VALUE_MEASURED: "1 to 9.9 nM"
- COMPOUND: "Cc1cc(-c2cn(C)c(=O)c3cc(-c4ccc(C(=O)NCC#Cc5ccc6occ(C7CCC(=O)NC7=O)c6c5)nc4)ncc23)cc2c1n(C)c(=O)n2C (stereo not shown)"
  VALUE_MEASURED: "< 1 nM"
- COMPOUND: "Cc1cc(N2CCN(C)c3cc(-c4ccc(C(=O)NCC#Cc5cc6c(C7CCC(=O)NC7=O)cccc6o5)nc4)ncc32)cc2c1n(C)c(=O)n2C (stereo not shown)"
  VALUE_MEASURED: "< 1 nM"
- COMPOUND: "CCc1cc(N(C)c2ccn(-c3cnc(C(=O)NCC#Cc4cccc(NC5CCC(=O)NC5=O)c4)c(C)c3)c(=O)c2)c2cc(C)c(=O)n(C)c2c1 (stereo not shown)"
  VALUE_MEASURED: "1 to 9.9 nM"
- COMPOUND: "Cc1cc2c(N3CCCc4nc(-c5ccc(C(=O)NCC#Cc6cc7c(C8CCC(=O)NC8=O)nccc7o6)nc5)ncc43)cccc2n(C)c1=O (stereo not shown)"
  VALUE_MEASURED: "< 1 nM"

Request body: readout DC50, system p300 (Homo sapiens, UniProt Q09472), query Cn1c(=O)n(C)c2cc(-c3cccc4cc(-c5ccc(C(=O)NCC#Cc6cc7c(C8CCC(=O)NC8=O)nccc7o6)nc5)ncc34)ccc21 (stereo not shown) . Return the value. < 1 nM

Provide value of DC50 for this record tested with p300 (Homo sapiens, UniProt Q09472): Cc1cc2c(N3CCCc4nc(-c5ccc(C(=O)NCC#Cc6cc7c(C8CCC(=O)NC8=O)cccc7o6)nc5)ncc43)cc(C3CCC3)nc2n(C)c1=O (stereo not shown) 10 to 99 nM

# value lookup — system p300 (Homo sapiens, UniProt Q09472), readout DC50, item Cc1cc2c(N3CCOc4cc(-c5ccc(C(=O)NCC#Cc6ccc7occ(C8CCC(=O)NC8=O)c7c6)nc5)c(F)cc43)cc(N3CC4(COC4)C3)cc2n(C)c1=O (stereo not shown) 1 to 9.9 nM
